- Test system: c-Src
- assay remarks: phosphorylation enrichment, bacterial display (enrichment ratio); higher = better substrate or ligand; peptides without Tyr show the background;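 further: 11-residue human phosphosite peptides and single-mutation variants displayed on the E. coli surface, counted by deep sequencing, each peptide's frequency after selection divided by its frequency in the unselected input library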;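 further: frequency after pTyr selection over input frequency; kinase dosed for 20-30% of maximal phosphorylation in three min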
property name: phosphorylation enrichment
When you answer, write just the number.

Look over these answered cases.
{"chain sequence": "DNEAIYDICRC [TUBA4A_Y210_R215C]", "experimental system": "c-Src", "experimental result": 6.51}
{"chain sequence": "VTHKEYFIFLE [CAMKV_Y95_R92H]", "experimental system": "c-Src", "experimental result": 1.29}
{"chain sequence": "NKFTTYLPWLP [C9orf24_Y126_R129W_YF]", "experimental system": "c-Src", "experimental result": 4.54}
{"chain sequence": "KINKMYSDRAM", "experimental system": "c-Src", "experimental result": 0.345}
{"chain sequence": "YFCRWYRNQKS [EREG_Y144_R147Q]", "experimental system": "c-Src", "experimental result": 0.477}
{"chain sequence": "AFGTVYKGLWI [EGFR_Y727]", "experimental system": "c-Src", "experimental result": 0.619}

Prompt: Please give the documented phosphorylation enrichment of KELANYYKLHH [AK7_Y390]
Completion: 0.509

Prompt: Please give the documented phosphorylation enrichment of NTYENYWPFYQ [GATM_Y103_K102N]
Completion: 7.27

Prompt: Please give the documented phosphorylation enrichment of PMQLPYDSRWE [PDGFRA_Y582]
Completion: 0.893

Prompt: Please give the documented phosphorylation enrichment of KDHPDYKYQRR [SOX10_Y171_P175R]
Completion: 0.319

Prompt: Please give the documented phosphorylation enrichment of GIVEDYRPPFC [ACVRL1_Y421_Y426C]
Completion: 0.517

----------
- experimental system: EPHB2 (UniProt P29323)
- Sequence (P29323 whole entry, looked up): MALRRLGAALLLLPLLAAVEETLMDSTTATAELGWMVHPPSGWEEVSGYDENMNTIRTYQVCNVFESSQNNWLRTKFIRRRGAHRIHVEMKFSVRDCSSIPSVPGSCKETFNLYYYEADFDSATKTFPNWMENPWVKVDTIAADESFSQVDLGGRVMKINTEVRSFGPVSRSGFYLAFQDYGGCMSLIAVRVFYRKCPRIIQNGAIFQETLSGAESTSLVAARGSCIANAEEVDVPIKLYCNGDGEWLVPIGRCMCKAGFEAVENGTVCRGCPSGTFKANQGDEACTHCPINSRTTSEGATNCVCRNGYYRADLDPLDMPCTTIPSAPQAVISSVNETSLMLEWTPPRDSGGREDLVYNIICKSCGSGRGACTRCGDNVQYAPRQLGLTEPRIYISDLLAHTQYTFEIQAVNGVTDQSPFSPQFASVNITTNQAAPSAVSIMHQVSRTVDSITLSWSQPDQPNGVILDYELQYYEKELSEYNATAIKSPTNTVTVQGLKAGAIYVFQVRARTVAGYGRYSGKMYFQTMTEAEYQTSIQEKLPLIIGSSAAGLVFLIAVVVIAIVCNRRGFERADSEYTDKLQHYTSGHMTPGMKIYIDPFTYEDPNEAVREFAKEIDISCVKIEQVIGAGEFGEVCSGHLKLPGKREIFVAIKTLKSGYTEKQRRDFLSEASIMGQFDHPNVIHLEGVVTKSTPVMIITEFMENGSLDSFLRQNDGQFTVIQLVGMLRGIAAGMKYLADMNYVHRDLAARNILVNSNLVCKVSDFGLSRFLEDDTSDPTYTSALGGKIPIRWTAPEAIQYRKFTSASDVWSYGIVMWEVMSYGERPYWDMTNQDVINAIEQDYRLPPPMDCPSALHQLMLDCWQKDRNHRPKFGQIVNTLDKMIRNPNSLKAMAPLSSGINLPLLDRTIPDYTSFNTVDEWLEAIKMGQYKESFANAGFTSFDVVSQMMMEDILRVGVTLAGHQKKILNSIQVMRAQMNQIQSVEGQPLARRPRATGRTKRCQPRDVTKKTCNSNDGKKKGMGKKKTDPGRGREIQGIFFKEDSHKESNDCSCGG
- assay remarks: phosphorylation enrichment, bacterial display (enrichment ratio); higher = better substrate or ligand; peptides without Tyr show the background
Listed next: entries and their corresponding phosphorylation enrichment.
When you answer, write just the number.

Look over these answered cases.
{"chain sequence": "YMRGMYFRMTD [PLA2G6_Y541_K545T]", "phosphorylation enrichment": 0.566}
{"chain sequence": "GNLQEYLTRHV [TGFBR2_Y336]", "phosphorylation enrichment": 0.564}
{"chain sequence": "IGVGSYSVCKR [RPS6KA3_Y433]", "phosphorylation enrichment": 0.412}
{"chain sequence": "GSESDYIIMPN [SCARB1_Y133_V135I]", "phosphorylation enrichment": 6.96}
{"chain sequence": "FIIFIYAMKKK [SLCO1B1_Y645_L643F_YF]", "phosphorylation enrichment": 0.541}
{"chain sequence": "SDVLSYGVTMW [ZAP70_Y525_W523L]", "phosphorylation enrichment": 0.604}

# input for lookup
Prompt: Please give the documented phosphorylation enrichment of LSVEIHDRREF [ITGB7_Y753_Y753H_YF]
Completion: 1.1

----------
- experimental system: EPHB2 (UniProt P29323)
- assay remarks: phosphorylation enrichment, bacterial display (enrichment ratio); higher = better substrate or ligand; peptides without Tyr show the background
Listed next: entries and their corresponding phosphorylation enrichment.
When you answer, write just the number.

Look over these answered cases.
{"chain sequence": "GSERDYTYDEL [EIF2S2_Y174_E177D]", "experimental result": 0.879}
{"chain sequence": "SDYYAYSPVRE [H6PD_Y449]", "experimental result": 23.7}
{"chain sequence": "QKDIFYGLRSL [IGSF10_Y126_T124I]", "experimental result": 0.616}

Prompt: Please give the documented phosphorylation enrichment of RCYVYYYSYLL [PTEN_Y177_R173C]
Completion: 0.936

Prompt: Please give the documented phosphorylation enrichment of EDSEYYRAFEE [CASQ2_Y179_K180R]
Completion: 0.724

----------
- experimental system: MERTK (UniProt Q12866)
- Sequence (Q12866 whole entry, looked up): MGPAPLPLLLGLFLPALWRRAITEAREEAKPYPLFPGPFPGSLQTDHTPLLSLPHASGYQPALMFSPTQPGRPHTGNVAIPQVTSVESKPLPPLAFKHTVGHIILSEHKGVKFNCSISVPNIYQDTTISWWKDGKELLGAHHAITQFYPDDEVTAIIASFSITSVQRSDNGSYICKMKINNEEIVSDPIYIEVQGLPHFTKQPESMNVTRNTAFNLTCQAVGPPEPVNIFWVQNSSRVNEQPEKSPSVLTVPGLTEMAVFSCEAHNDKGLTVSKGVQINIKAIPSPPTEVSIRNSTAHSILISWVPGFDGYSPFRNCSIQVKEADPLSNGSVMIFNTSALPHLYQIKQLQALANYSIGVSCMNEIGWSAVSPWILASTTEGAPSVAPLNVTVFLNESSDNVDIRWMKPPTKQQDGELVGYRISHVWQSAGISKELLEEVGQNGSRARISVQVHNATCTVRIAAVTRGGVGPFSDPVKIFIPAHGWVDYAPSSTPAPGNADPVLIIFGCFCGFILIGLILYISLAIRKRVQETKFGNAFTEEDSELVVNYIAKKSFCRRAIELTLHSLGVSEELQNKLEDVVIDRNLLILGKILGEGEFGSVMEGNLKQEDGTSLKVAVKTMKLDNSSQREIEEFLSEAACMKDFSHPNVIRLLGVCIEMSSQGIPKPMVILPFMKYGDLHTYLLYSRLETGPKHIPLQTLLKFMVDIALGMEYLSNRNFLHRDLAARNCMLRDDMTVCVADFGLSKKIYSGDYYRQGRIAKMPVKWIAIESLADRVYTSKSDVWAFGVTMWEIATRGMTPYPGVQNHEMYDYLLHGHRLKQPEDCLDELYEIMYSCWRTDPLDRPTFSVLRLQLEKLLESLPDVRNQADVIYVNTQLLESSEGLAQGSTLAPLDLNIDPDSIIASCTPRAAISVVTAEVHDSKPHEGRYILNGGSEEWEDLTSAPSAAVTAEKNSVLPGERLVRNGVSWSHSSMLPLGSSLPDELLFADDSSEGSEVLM
- assay remarks: phosphorylation enrichment, bacterial display (enrichment ratio); higher = better substrate or ligand; peptides without Tyr show the background
Param threshold (0.5) applies to phosphorylation enrichment; output TRUE when value >= threshold, FALSE when value < threshold.

{"chain sequence": "SVVVPFEPPEV [TP53_Y220_Y220F]", "category label": "FALSE"}
{"chain sequence": "KEAVLYPHLPP [SQSTM1_Y383_A381V]", "category label": "FALSE"}
{"chain sequence": "ITNLLYHLVGW [GBA_Y412_V414L]", "category label": "TRUE"}
{"chain sequence": "WKKEIYEESST [MOCS2_Y170]", "category label": "FALSE"}
{"chain sequence": "CSRRLYQLTKL [AR_Y858_F857L]", "category label": "TRUE"}
{"chain sequence": "HRDDGYMPMSP [IRS1_Y612_T608R]", "category label": "FALSE"}
{"chain sequence": "TYEPNYGTVKQ [RAPGEF6_Y1447]", "category label": "TRUE"}
{"chain sequence": "HNMPIYEGYAL [ACTA1_Y168_V165M]", "category label": "TRUE"}

Prompt: Does phosphorylation enrichment meet or surpass 0.5 for KSLFHHRQYSA [CPS1_Y1491_Y1491H] ?
Completion: FALSE

Prompt: Does phosphorylation enrichment meet or surpass 0.5 for HFGCVYHGTLL [MET_Y1093] ?
Completion: TRUE

Prompt: Does phosphorylation enrichment meet or surpass 0.5 for MPIPMYDGSQA [CARMIL1_Y637_A639G] ?
Completion: FALSE

Prompt: Does phosphorylation enrichment meet or surpass 0.5 for MCITQYKRESQ [PRNP_Y218_E219K] ?
Completion: FALSE

----------
- System: Fer (mouse)
- assay remarks: phosphorylation enrichment, bacterial display (enrichment ratio); higher = better substrate or ligand; peptides without Tyr show the background
Param threshold (0.6) applies to phosphorylation enrichment; output yes (1) when value >= threshold, no (0) when value < threshold.

These recorded examples may help you get a feel for the data.
{"chain sequence": "KFDLMYAKCAF [TUBA1A_Y399_R402C]", "category label": "yes (1)"}
{"chain sequence": "DAMQTYNGNDE [TSPAN7_Y131]", "category label": "no (0)"}
{"chain sequence": "NLFIEYPTGSG [IRF2BPL_Y423_K418N]", "category label": "yes (1)"}

Prompt: Does phosphorylation enrichment meet or surpass 0.6 for GKVADYIPQLP [GLS_Y249_A254P] ?
Completion: no (0)

Prompt: Does phosphorylation enrichment meet or surpass 0.6 for VNKLVYENING [FRS2_Y306] ?
Completion: yes (1)

Prompt: Does phosphorylation enrichment meet or surpass 0.6 for MKKKIYAMGGG [GAN_Y424] ?
Completion: no (0)

Prompt: Does phosphorylation enrichment meet or surpass 0.6 for QEITTYRRLLE [KRT14_Y415_A413T] ?
Completion: no (0)

Prompt: Does phosphorylation enrichment meet or surpass 0.6 for NWGSPYKSDGC [ZNF347_Y261_N264D] ?
Completion: no (0)

Prompt: Does phosphorylation enrichment meet or surpass 0.6 for LSNFNYEQRGA [API5_Y497_G493S] ?
Completion: yes (1)

Prompt: Does phosphorylation enrichment meet or surpass 0.6 for NFGTNYRVGSS [CPO_Y278_K273N_YF] ?
Completion: no (0)

Prompt: Does phosphorylation enrichment meet or surpass 0.6 for RFLERYIFNPE [HLA-DPB1_Y57_R61P_YF] ?
Completion: yes (1)

Prompt: Does phosphorylation enrichment meet or surpass 0.6 for YSMGCYEFSLG [HMGCL_Y198_I200F] ?
Completion: yes (1)

Prompt: Does phosphorylation enrichment meet or surpass 0.6 for LRAGVYPEKDQ [DNM2_Y626] ?
Completion: no (0)

Prompt: Does phosphorylation enrichment meet or surpass 0.6 for FIIFIYAMKKK [SLCO1B1_Y645_L643F_YF] ?
Completion: yes (1)

----------
- experimental system: Fes (UniProt P07332)
- Sequence (P07332 whole entry, looked up): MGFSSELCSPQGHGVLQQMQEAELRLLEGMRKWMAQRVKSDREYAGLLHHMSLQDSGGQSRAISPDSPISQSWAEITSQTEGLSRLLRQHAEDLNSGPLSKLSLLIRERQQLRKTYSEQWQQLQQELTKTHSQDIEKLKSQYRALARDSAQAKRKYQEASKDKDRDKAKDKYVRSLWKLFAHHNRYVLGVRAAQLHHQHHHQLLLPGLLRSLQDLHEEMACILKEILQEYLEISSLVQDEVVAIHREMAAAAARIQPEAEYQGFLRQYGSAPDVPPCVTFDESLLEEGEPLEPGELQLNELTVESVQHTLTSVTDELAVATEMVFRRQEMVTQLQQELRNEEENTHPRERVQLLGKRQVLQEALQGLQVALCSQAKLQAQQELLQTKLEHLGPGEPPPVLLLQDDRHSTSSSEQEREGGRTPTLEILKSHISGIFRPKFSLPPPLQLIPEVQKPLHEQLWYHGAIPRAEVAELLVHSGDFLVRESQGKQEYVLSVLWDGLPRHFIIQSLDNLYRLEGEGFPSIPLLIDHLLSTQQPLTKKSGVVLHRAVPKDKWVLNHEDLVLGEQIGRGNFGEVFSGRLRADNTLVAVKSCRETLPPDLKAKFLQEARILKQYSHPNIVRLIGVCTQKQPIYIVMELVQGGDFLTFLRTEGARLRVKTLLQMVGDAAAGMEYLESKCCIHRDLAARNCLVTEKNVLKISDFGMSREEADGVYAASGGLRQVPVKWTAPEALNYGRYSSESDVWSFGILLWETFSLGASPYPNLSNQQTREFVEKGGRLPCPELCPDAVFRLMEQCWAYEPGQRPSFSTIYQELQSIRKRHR
- assay remarks: phosphorylation enrichment, bacterial display (enrichment ratio); higher = better substrate or ligand; peptides without Tyr show the background
Param threshold (1) applies to phosphorylation enrichment; output 1.0 when value >= threshold, 0.0 when value < threshold.

{"chain sequence": "GKVADYIPQLP [GLS_Y249_A254P]", "experimental system": "Fes (UniProt P07332)", "category label": 0.0}
{"chain sequence": "PQAVTYAKVKH [LILRB4_Y360]", "experimental system": "Fes (UniProt P07332)", "category label": 0.0}

Prompt: Does phosphorylation enrichment meet or surpass 1 for LLANAYIYVVQ [L1CAM_Y418] ?
Completion: 1.0

Prompt: Does phosphorylation enrichment meet or surpass 1 for TDTAAYEERVR [SPTB_Y474] ?
Completion: 1.0

Prompt: Does phosphorylation enrichment meet or surpass 1 for MECLPYGSLRD [JAK2_Y934_Y931C] ?
Completion: 1.0

Prompt: Does phosphorylation enrichment meet or surpass 1 for SVTCTSSPALN [TP53_Y126_Y126S] ?
Completion: 1.0

Prompt: Does phosphorylation enrichment meet or surpass 1 for DLDLTSIYPNI [PTEN_Y27_Y27S] ?
Completion: 0.0

Prompt: Does phosphorylation enrichment meet or surpass 1 for PQDVTYARLHS [LILRB4_Y412_Q414R] ?
Completion: 1.0

Prompt: Does phosphorylation enrichment meet or surpass 1 for SSVKLYRVYCD [FGB_Y266_P265L] ?
Completion: 1.0

Prompt: Does phosphorylation enrichment meet or surpass 1 for CEAVEYLESKQ [BTK_Y511_M509V] ?
Completion: 1.0

Prompt: Does phosphorylation enrichment meet or surpass 1 for KFDLMYAKCAF [TUBA1A_Y399_R402C] ?
Completion: 1.0

Prompt: Does phosphorylation enrichment meet or surpass 1 for RMQLPYDSTWE [PDGFRB_Y589_P584R] ?
Completion: 1.0

Prompt: Does phosphorylation enrichment meet or surpass 1 for MCITQYKRESQ [PRNP_Y218_E219K] ?
Completion: 0.0

Prompt: Does phosphorylation enrichment meet or surpass 1 for GRTGHYLCNAC [GATA1_Y223_D218G] ?
Completion: 0.0

Prompt: Does phosphorylation enrichment meet or surpass 1 for LNCAGYCDALE [MTUS1_Y151] ?
Completion: 1.0

Prompt: Does phosphorylation enrichment meet or surpass 1 for DSGKLYALDVL [INO80_Y1104] ?
Completion: 0.0

Prompt: Does phosphorylation enrichment meet or surpass 1 for AKFPFYEKNKK [FOXL2_Y91] ?
Completion: 0.0

Recorded values, source the supplement of paper PMC10065799.
